Target: Glucagon-like peptide 1 receptor (Homo sapiens)
Assay: qHTS of GLP-1 Receptor Inverse Agonists (Inhibition Mode); also: nearly all actives have a fitted effect of over 55% in size
Settings: HEK293 GLP-1R CRE-luciferase, luminescence, 24 h, GLP-1R form is constitutively active; series mostly up to 38.3 µM
Screen size: about 410,000 compounds; about 6,400 (1.6%) were called active. Roughly 20% stayed inconclusive and do not appear here. Calls follow the shape of the dose curve; as a rule, active = well fitted inhibition curve with a large enough effect; inconclusive = small, poorly fitted or top-dose-only effect; inactive = no such curve, though single readings can be large or run the other way. What follows is part of a selection rich in actives, with near analogues and random picks from the rest.
Respond only with the outcome that fits, drawn from active, inactive

Use the examples below as a reference point.
compound=CCN1CCN(CCCCOc2ccccc2F)CC1 system_tested="Glucagon-like peptide 1 receptor (Homo sapiens)" label=inactive
compound=O=C(Nc1nnc(-c2ccccc2F)s1)c1ccccc1F system_tested="Glucagon-like peptide 1 receptor (Homo sapiens)" label=inactive
compound="CN1c2ccc([N+](=O)[O-])cc2C(C)(C)C12C=Cc1cc(C(=O)O)ccc1O2 (stereo not given)" system_tested="Glucagon-like peptide 1 receptor (Homo sapiens)" label=inactive
compound=COc1cccc(-c2nc(CS(=O)(=O)CC(=O)NCCc3ccc(OC)c(OC)c3)c(C)o2)c1 system_tested="Glucagon-like peptide 1 receptor (Homo sapiens)" label=inactive
compound="O=C(OCc1ccccc1)N1CCC2CC1c1cc(N3CCN(S(=O)(=O)c4cc(Cl)cc(Cl)c4)CC3)ccc12 (stereo not given)" system_tested="Glucagon-like peptide 1 receptor (Homo sapiens)" label=inactive

Identify the outcome logged in this assay for the compound shown: C=C(Br)Cn1c(CCCC)nc2ccccc21
active

Identify the outcome logged in this assay for the compound shown: CCC[C@@H]1C[C@@]1(CCC)[C@@H](NC(=O)c1ccccc1)c1ccc(C(=O)OC)cc1
active
